# tested.system: Kynureninase (Rattus norvegicus, UniProt P70712)
# Sequence (P70712 whole entry): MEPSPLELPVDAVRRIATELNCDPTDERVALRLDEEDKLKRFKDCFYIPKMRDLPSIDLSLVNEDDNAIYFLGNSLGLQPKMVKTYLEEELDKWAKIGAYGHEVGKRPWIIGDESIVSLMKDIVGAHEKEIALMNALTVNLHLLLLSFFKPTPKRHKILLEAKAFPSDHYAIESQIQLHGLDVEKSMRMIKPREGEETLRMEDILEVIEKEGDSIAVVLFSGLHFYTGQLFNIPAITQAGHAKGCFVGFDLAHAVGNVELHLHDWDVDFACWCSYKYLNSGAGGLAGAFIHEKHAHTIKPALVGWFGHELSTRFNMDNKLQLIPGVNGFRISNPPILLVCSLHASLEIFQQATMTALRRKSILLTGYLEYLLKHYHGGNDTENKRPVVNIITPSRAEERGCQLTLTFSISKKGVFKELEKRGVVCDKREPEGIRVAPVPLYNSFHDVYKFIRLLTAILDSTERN
reported.metric: IC50 (µM)

1. COc1cccc(S(=O)(=O)CC(N)C(=O)O)c1N (configuration not stated) : 29
2. Nc1c(F)cccc1S(=O)(=O)CC(N)C(=O)O (configuration not stated) : 20
